Biological target: recombinant sEH (soluble epoxide hydrolase, EPHX2) (Homo sapiens (Human), UniProt P34913)
Sequence (P34913 whole entry): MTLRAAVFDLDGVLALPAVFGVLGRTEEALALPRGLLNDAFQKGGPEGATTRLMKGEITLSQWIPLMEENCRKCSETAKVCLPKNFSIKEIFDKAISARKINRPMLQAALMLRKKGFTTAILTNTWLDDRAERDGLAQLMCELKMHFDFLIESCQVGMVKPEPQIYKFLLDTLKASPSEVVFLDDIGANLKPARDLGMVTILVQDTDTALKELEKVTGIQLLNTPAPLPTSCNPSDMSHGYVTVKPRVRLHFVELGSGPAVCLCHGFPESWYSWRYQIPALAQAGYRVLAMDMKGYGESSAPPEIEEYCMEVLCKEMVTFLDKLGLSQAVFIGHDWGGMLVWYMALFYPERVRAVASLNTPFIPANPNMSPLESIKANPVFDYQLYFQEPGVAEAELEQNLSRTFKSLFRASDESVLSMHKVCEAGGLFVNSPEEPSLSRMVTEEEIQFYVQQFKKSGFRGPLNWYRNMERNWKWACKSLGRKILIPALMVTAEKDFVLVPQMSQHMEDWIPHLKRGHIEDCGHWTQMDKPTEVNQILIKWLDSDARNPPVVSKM
Assay: biochemical fluorometric sEH inhibition assay with Phome substrate
Conditions: recombinant sEH purified from Sf9 insect cells, 2 nM sEH, 5 μM Phome, 60 minutes at 30° C.
Measure name: IC50
Respond with the figure and its unit, in that order.

The examples below pair each entry with its known result.
Compound: O=C(NCc1ccc(Cl)cc1Cl)c1cnc(CN2CCN(C(=O)CN3CCOC3=O)CC2)s1 [Example 193]
Experimental system: recombinant sEH (soluble epoxide hydrolase, EPHX2) (Homo sapiens (Human), UniProt P34913)
Measure name: IC50
Val: 15.2 nM

Compound: Cc1noc(C)c1C(=O)N1CCN(Cc2ncc(C(=O)NCc3ccc(Cl)cc3Cl)s2)CC1 [Example 160]
Experimental system: recombinant sEH (soluble epoxide hydrolase, EPHX2) (Homo sapiens (Human), UniProt P34913)
Measure name: IC50
Val: 1.41 nM

Compound: O=C(NCc1ccccc1OC(F)(F)F)c1ccc(CN2CCN(C(=O)[C@@H]3CCC[C@@H]3O)CC2)s1 [Example 94]
Experimental system: recombinant sEH (soluble epoxide hydrolase, EPHX2) (Homo sapiens (Human), UniProt P34913)
Measure name: IC50
Val: 1.5 nM

// Input: O=C(NCc1ccccc1OC(F)(F)F)c1ccc(CN2CCN(C(=O)c3ccccn3)CC2)s1 [Example 121] . Output its IC50 only. 1.68 nM

* * *

Target: recombinant sEH (soluble epoxide hydrolase, EPHX2) (Homo sapiens (Human))
Assay: biochemical fluorometric sEH inhibition assay with Phome substrate
Details: recombinant sEH purified from Sf9 insect cells, 2 nM sEH, 5 μM Phome, 60 minutes at 30° C.
Measure name: pIC50
Give bare numbers, as −log10 of the molar value.

Molecule: NC1(C(=O)N2CCN(Cc3ccc(C(=O)NCc4ccc(Cl)cc4Cl)s3)CC2)CC1 [Example 109]
Measure name: pIC50
Val: 8.67
--
Molecule: CC(C)(O)CC(=O)N1CCN(Cc2ncc(C(=O)NCc3ccc(Cl)cc3Cl)s2)CC1 [Example 185]
Measure name: pIC50
Val: 7.86
--
Molecule: COCc1cc(O)nc(N2CCN(Cc3ccc(C(=O)NCc4ccc(Cl)cc4Cl)s3)CC2)n1 [Example 21]
Measure name: pIC50
Val: 8.54
--
Molecule: Cn1ncc(Br)c1C(=O)N1CCN(Cc2ccc(C(=O)NCc3ccccc3C(F)(F)F)s2)CC1 [Example 52]
Measure name: pIC50
Val: 9.02
--
Molecule: COc1ccc(CNC(=O)c2ccc(CN3CCN(c4ncccc4C)C(=O)C3)s2)c(OC(F)(F)F)c1 [Example 126]
Measure name: pIC50
Val: 8.76
--
Molecule: O=C(NCc1ccccc1OC(F)(F)F)c1ccc(CN2CCN(C(=O)C3CCOC3)CC2)s1 (centres unmarked) [Example 55]
Measure name: pIC50
Val: 8.98
--
Molecule: COc1cccnc1C(=O)N1CCN(Cc2ncc(C(=O)NCc3ccc(Cl)cc3Cl)s2)CC1 [Example 196]
Measure name: pIC50
Val: 7.44

Would you kindly look at the next entry?
// Input: Cc1ccc(O)c(C(=O)N2CCN(Cc3ccc(C(=O)NCc4ccccc4OC(F)(F)F)s3)CC2)n1 [Example 79] . Output its pIC50 only. 8.60

* * *

Please go through the items and note down their pIC50.
Target: recombinant sEH (soluble epoxide hydrolase, EPHX2) (Homo sapiens (Human), UniProt P34913)
Assay: biochemical fluorometric sEH inhibition assay with Phome substrate
Details: recombinant sEH purified from Sf9 insect cells, 2 nM sEH, 5 μM Phome, 60 minutes at 30° C.
One number for each entry, as −log10 of the molar value.

Compound: COc1ccc(CNC(=O)c2ccc(CN3CCN(c4cc(C)ccn4)CC3)s2)c(OC(F)(F)F)c1
Experimental system: recombinant sEH (soluble epoxide hydrolase, EPHX2) (Homo sapiens (Human), UniProt P34913)
pIC50: 8.76
//
Compound: O=C(NCc1ccc(Cl)cc1Cl)c1ccc(CN2CCN(C(=O)COc3ccccc3)CC2)s1
Experimental system: recombinant sEH (soluble epoxide hydrolase, EPHX2) (Homo sapiens (Human), UniProt P34913)
pIC50: 8.57
//
Compound: C[C@@H](O)C(=O)N1CCN(Cc2ccc(C(=O)N(Cc3ccccc3)OC(F)(F)F)s2)CC1
Experimental system: recombinant sEH (soluble epoxide hydrolase, EPHX2) (Homo sapiens (Human), UniProt P34913)
pIC50: 9.91
//
Compound: CN1CCC[C@H]1C(=O)N1CCN(Cc2ncc(C(=O)NCc3ccc(Cl)cc3Cl)s2)CC1
Experimental system: recombinant sEH (soluble epoxide hydrolase, EPHX2) (Homo sapiens (Human), UniProt P34913)
pIC50: 6.94
//
Compound: NC1(C(=O)N2CCN(Cc3ncc(C(=O)NCc4ccc(Cl)cc4Cl)s3)CC2)CC1
Experimental system: recombinant sEH (soluble epoxide hydrolase, EPHX2) (Homo sapiens (Human), UniProt P34913)
pIC50: 8.59

Fill in pIC50 for each of the 4 compounds listed.
1. CCn1nc(C)c(Br)c1C(=O)N1CCN(Cc2ccc(C(=O)NCCC(C)C)s2)CC1
2. O=C(NCc1ccc(Cl)cc1Cl)c1ccc(CN2CCN(C(=O)C3(c4ccccc4)CC3)CC2)s1
3. O=C(NCc1ccccc1OC(F)(F)F)c1ccc(CN2CCN(c3ccc(CO)cn3)CC2)s1
4. COCCOCC(=O)N1CCN(Cc2ncc(C(=O)NCc3ccc(Cl)cc3Cl)s2)CC1

1. 8.82
2. 8.93
3. 8.62
4. 7.80
